Cited source for all entries: the supplement of paper PMC9170038

# System: MS2 coat protein
# ASSAY PROTOCOL: apparent KD of MS2 coat protein; designed switch direction (-1 OFF switch, 1 ON switch): -1; higher = weaker reporter binding
# CONDITION NOTES: Eterna round: R95; input ligand: microRNA oligo, concentration not stated
Lab note: compare apparent KD of MS2 coat protein against 60 nM. Equal or greater, write Yes. Smaller, write No.

Solved cases below.
{"SEQUENCE RECORD": "UUGUAUAUCUAUGGGAGUAACAUGAGGAUCACCCAUGUAUGUCUUGUUUUUUGUUCGUCAUAGGCCAAUUGAAUGGU [JR_SV3TOV1_Sub026] (puzzle: Sensor v3, turn-off variant 1)", "LABEL CLASS": "No"}
{"SEQUENCE RECORD": "CGUGACUGAGGAUAUCUAUAAUGUCACAUGAGGAUCACCCAUGUCCAGCGAAAGCUGGAGGGAGAAGGCAGUCACG [Fiskers Ex 5 - 33] (puzzle: Exclusion 5)", "LABEL CLASS": "No"}
{"SEQUENCE RECORD": "CGUACUAAAGUCAGGAUAUUGUCUCGGAUACGAAACAAGAAGGGACAUGAGGAUCACCCAUGUAGAUAGUACGA [Malc #30 mod 5] (puzzle: Brourd's mod of Exclusion 4)", "LABEL CLASS": "No"}

**Query** Determine whether this sequence has apparent KD of MS2 coat protein no lower than 60 nM: UUUUACAUAGGAUAUAGUUUCUUUUACAUGAGGAUCACCCAUGUCUCUCCUCUCUCUCUUCUAGAAGGAUGUUUCU [JR_E5_Sub012] (puzzle: Exclusion 5)
**Result** Yes

**Query** Textbook exercise: given the entry GUAUGUUAUGAGGAUAUCGGUGAACAUACACAUCGAGAAGGCAUGACAUGAGGAUCACCCAUGUCAAGGAUGUA [Exclusion 6 - B - 18:b] (puzzle: Exclusion 6) , state whether its apparent KD of MS2 coat protein is greater than or equal to 60 nM.
**Result** No

**Query** Say whether CAUACUGAAGUUAGGAUAUGCGGCCGAAUACGGAUGUAGAAGGGACAUGAGGAUCACCCAUGUAGAUAGUAAAG [EX-4 Malc #15] (puzzle: Brourd's mod of Exclusion 4) shows apparent KD of MS2 coat protein of 60 nM or more.
**Result** No

**Query** Is it the case that GCCAGAGCAGGAUAUUCAAUAAUCCACAUGAGGAUCACCCAUGUCCUGCGAAAGCAGGAGGGAGAAGGGCUCUGGC [Mat - Exclusion 5 - Eli mod - D89] (puzzle: Exclusion 5) has apparent KD of MS2 coat protein reaching or exceeding 60 nM?
**Result** Yes

**Query** Assess whether reported apparent KD of MS2 coat protein for UUCUUGGCAGGAUAUGCUCUCUUAGACAUGAGGAUCACCCAUGUGUUCAUUCUUUCUUUUGCAGAAGGGCCUUAAU [JR_E5_Sub045] (puzzle: Exclusion 5) sits at 60 nM or higher.
**Result** No

**Query** Form field: apparent KD of MS2 coat protein at least 60 nM? Entry: GGUCAAGAACAGCUCCGCGCUGCCCUUGACCGCUCAUUUACAUGAGGAUCACCCAUGUUUUUUGCUUGUCUUGUUUC [Bebiesgebe] (puzzle: Sensor v3, turn-off variant 2)
**Result** Yes

**Query** I'd appreciate it if you could say whether GGUUGGCGAGGAUAUACAUGAGGAUCACCCAUGUGAGCGAAAAAAGUGAGGAAGAAAAGUAGAAGGCGCUGACG [salish99_ex3_r3_020] (puzzle: Exclusion 3) has apparent KD of MS2 coat protein at least equal to 60 nM.
**Result** No

**Query** Given UUUUUGUGAGGAUAUUAGUAGUAAAUAAAUAAAAUUACUACUGAGAAGGCACAUGAGGAUCACCCAUGUUCCUC [salish99_ex4_r3_068] (puzzle: Exclusion 4) , state whether its apparent KD of MS2 coat protein is at least 60 nM.
**Result** No
